Reported D (FR towards mutant D) is given for each of the following compounds.
- Tested on: HIV strain D
- Measurement protocol: Antiviral spectrum, clinically isolated mutant strain D
- Assay type: cell-based
- Condition set: FR=EC50(mutant strain)/EC50(HIV-1 strain LAI)

Examples with their reported D (FR towards mutant D) follow.
// returns reported D (FR towards mutant D) for input CC(C)CN(CC(O)C(Cc1ccccc1)NC(=O)OC1COC2OCCC12)S(=O)(=O)c1ccc2c(c1)/C(=C\c1ccco1)C(=O)N2 (stereo not drawn)
2.4

# iterate: Cc1ccc(C=C2C(=O)Nc3ccc(S(=O)(=O)N(CC(C)C)CC(O)C(Cc4ccccc4)NC(=O)OC4COC5OCCC45)cc32)o1 (stereo not drawn)
3.8

// below: D (FR towards mutant D) requested for another compound
// returns reported D (FR towards mutant D) for input CC(C)CN(C[C@@H](O)[C@H](Cc1ccccc1)NC(=O)OC1COC2OCCC12)S(=O)(=O)c1ccc2c(c1)CC(=O)N2 (stereo in doubt)
0.33

###

- Measurement protocol: Toxicity on mock-infected MT4 cells (MTT)
- Assay type: cell-based
- Condition set: human
Reported CC50 at 5 days is given for each of the following compounds.
// return numeric value only (unit: µM, not printed)

// returns reported CC50 at 5 days for input CCC(C=C1C(=O)Nc2ccc(S(=O)(=O)N(CC(C)C)CC(O)C(Cc3ccccc3)NC(=O)OC3COC4OCCC34)cc21)CC (stereo not drawn)
63.1

# iterate: CC(C)CN(CC(O)C(Cc1ccccc1)NC(=O)OC1COC2OCCC12)S(=O)(=O)c1ccc2c(c1)/C(=C\c1ccco1)C(=O)N2 (stereo not drawn)
79.4

Next:
// returns reported CC50 at 5 days for input CC(C)CN(CC(O)C(Cc1ccccc1)NC(=O)OC1COC2OCCC12)S(=O)(=O)c1ccc2c(c1)C(=Cc1ccc[nH]1)C(=O)N2 (stereo not drawn)
12.6

These entries and their values trace back to patent US7199148B2.
